Assay: NCI Yeast Anticancer Drug Screen. Data for the mgt1 strain (AID 153)
Conditions: S. cerevisiae mgt1 mutant growth inhibition; at 11.0 µM
Description: Growth inhibition of yeast strains with defined genetic alterations is measured as a screen for potential anti-cancer activity. Selected strains with alterations in DNA damage repair or cell cycle control were exposed to compounds and growth inhibition was measured relative to vehicle treated controls. The strain used in this assay is mgt1
This is part of a sample that, as a whole, favours compounds with a hit. Of some 79,000 tested, about 15% had one in any assay. Calls of active or inactive are those of the source. Cut-off read from the data, not from the text of the source: active = growth inhibition above about 70%; inactive = the rest.
Can you answer with just one of these options? Yes for active, No for inactive

Consider the worked cases shown below.
{"columns": ["compound", "assigned.label"],
 "data": [
  ["COc1cccc(C(NC2=NCCC=N2)c2cc3c(cc2O)OCO3)c1O (stereo unspecified)", "No"],
  ["CC(=O)O[C@H]1CC[C@@]2(C)C(=CC[C@@H]3C2CC[C@]2(C)C(=O)NC(=O)CC32)C1 (stereo partly specified)", "No"]
]}

So what was the verdict on `COC(=O)c1cnc(Cl)c([N+](=O)[O-])c1` in this test?
Yes

So what was the verdict on `Cc1ccc(S(=O)(=O)NC(=O)C2C(=O)CC3(CCCCC3)CC2=O)cc1` in this test?
No

So what was the verdict on COc1ccc(C(C)c2cc3c(cc2OCC(C)=O)OCO3)cc1 (stereo unspecified) in this test?
No

So what was the verdict on `COC(=N)c1ccc(O)c(C)c1` in this test?
No

So what was the verdict on `O=C(NO)c1coc2ccccc2c1=O` in this test?
No

So what was the verdict on `CC1=CC(=C(c2ccc(N)c(C)c2)c2ccc(N)c(C)c2)C=CC1=N` in this test?
No

So what was the verdict on `CCOC(=O)/C(=C\c1cccc(C)c1)C(C)=O` in this test?
No

So what was the verdict on `O=[N+]([O-])c1ccc2nc(=S)[nH]n2c1` in this test?
No

So what was the verdict on `S=C1C(=Nc2ccccc2)N(c2ccccc2)/C(=N\c2ccccn2)N1c1ccccc1` in this test?
No
